Experiment: Solubility experiment
Format: physicochemical
Details: H2O; calculated for crystal form I
Reported values of Solubility for individual entries

Compound	Comparator	Solubility [mg/mL]
CCN1CCN(Cc2ccc(Nc3ncc4c(n3)-c3c(nc(C5CC5)n3C(C)C)C4)nc2)CC1 [Crystal form B-1]	>	40.85
CCN1CCN(Cc2ccc(Nc3ncc4c(n3)-c3c(nc(C5CC5)n3C(C)C)C4)nc2)CC1 [Crystal form I]	=	0.36
CCN1CCN(Cc2ccc(Nc3ncc4c(n3)-c3c(nc(C5CC5)n3C(C)C)C4)nc2)CC1 [Crystal form K-1]	>	38.91
CCN1CCN(Cc2ccc(Nc3ncc4c(n3)-c3c(nc(C5CC5)n3C(C)C)C4)nc2)CC1 [Crystal form A]	=	11.59
